Sourced from patent US20230312587A1

The entries below are paired with their reported Percent Remaining Activity at 8 hrs after Dosing.
- System: Colo205-TCF/LEF-Luciferase (Luc) tumor
- assay: In vivo inhibition of TCF/LEF reporter activity in Colo-205 tumors
- Parameters: concentration or dose not given beside the values
- cond: TCF/LEF luciferase reporter in Colo-205 tumors, nu/nu mice, oral gavage
Expressed in %, but write only the number.

{"molecule": "Cc1nc(NCc2cnn([C@@H]3C[C@@H]3c3ccc(F)cc3)c2)nc2c1NC(=O)[C@H](C)N2C [Compound 154]", "test-target": "Colo205-TCF/LEF-Luciferase (Luc) tumor", "quantitative-readout": 24}
{"molecule": "Cc1ncc(Cn2cc(CNc3nc(C)c4c(n3)N(C)[C@@H](C(C)C)C(=O)N4)cn2)cc1F [Compound 425]", "test-target": "Colo205-TCF/LEF-Luciferase (Luc) tumor", "quantitative-readout": 29}

Note down Percent Remaining Activity at 8 hrs after Dosing recorded for Cc1nc(N[C@H]2C[C@@H](Nc3cc(C(F)(F)F)ncn3)C2)nc2c1NC(=O)[C@H](C(C)C)N2C [Compound 528]
28

Note down Percent Remaining Activity at 8 hrs after Dosing recorded for Cc1nc(NCc2cnn(Cc3ccc(C(F)(F)F)o3)c2)nc2c1NC(=O)[C@H](C(C)C)N2C [Compound 518]
21
